procedure-text: 8-day repeat-dose study, tolerability (blood chemistry, hematology, adverse events) in tumor-bearing dogs
Type: in vivo, dog
assay-conditions: Dog 1; Post: 30 min after last injection on day 8; 10 mg s.c. once daily for 8 days
Where a SMILES comes first, the peptide text is derived from it. [ ]: non-standard residue; d: D form. Hyp = O=C(O)[C@@H]1C[C@@H](O)CN1
assay-endpoint: Bilirubin Conj.
Entry format: amount then unit.

Field request: Bilirubin Conj. | item: CC(C)[C@@H]1NC(=O)[C@@H]2C[C@@H](O)CN2C(=O)[C@H]([C@@H](C)O)NC(=O)[C@H](CCCCN)NC(=O)[C@H](CCC(=O)O)NC(=O)[C@H](CC(N)=O)NC(=O)CNC(=O)[C@@H]2C[C@@H](O)CN2C(=O)[C@H](CC(N)=O)NC1=O [AFPep] (cyclo(EKT[Hyp]VN[Hyp]GN))
0.1 mg/dL

====

procedure-text: 8-day repeat-dose study, tolerability (blood chemistry, hematology, adverse events) in tumor-bearing dogs
Format: in vivo, dog
assay-conditions: Dog 2; Post: 30 min after last injection on day 8; 10 mg s.c. once daily for 8 days
Where a SMILES comes first, the peptide text is derived from it. [ ]: non-standard residue; d: D form. Hyp = O=C(O)[C@@H]1C[C@@H](O)CN1
assay-endpoint: Glucose (mg/dL)
Report the figure in mg/dL without appending any unit label.

Field request: Glucose | item: CC(C)[C@@H]1NC(=O)[C@@H]2C[C@@H](O)CN2C(=O)[C@H]([C@@H](C)O)NC(=O)[C@H](CCCCN)NC(=O)[C@H](CCC(=O)O)NC(=O)[C@H](CC(N)=O)NC(=O)CNC(=O)[C@@H]2C[C@@H](O)CN2C(=O)[C@H](CC(N)=O)NC1=O [AFPep] (cyclo(EKT[Hyp]VN[Hyp]GN))
178

====

procedure-text: in vivo
Set-up: species or system Macaca mulatta
assay-conditions: monkey, sc, 4 mg/kg
Where a SMILES comes first, the peptide text is derived from it. [ ]: non-standard residue; d: D form. Hyp = O=C(O)[C@@H]1C[C@@H](O)CN1
assay-endpoint: half-life (min)
Report the figure in min without appending any unit label.

Field request: half-life | item: CC(C)[C@@H]1NC(=O)[C@@H]2C[C@@H](O)CN2C(=O)[C@H]([C@@H](C)O)NC(=O)[C@H](CCCCN)NC(=O)[C@H](CCC(=O)O)NC(=O)[C@H](CC(N)=O)NC(=O)CNC(=O)[C@@H]2C[C@@H](O)CN2C(=O)[C@H](CC(N)=O)NC1=O [AFPep] (cyclo(EKT[Hyp]VN[Hyp]GN))
27

====

procedure-text: Pharmacokinetics in mice
Format: in vivo
assay-conditions: mouse, in vivo, sc, 4 mg/kg
Where a SMILES comes first, the peptide text is derived from it. [ ]: non-standard residue; d: D form. Hyp = O=C(O)[C@@H]1C[C@@H](O)CN1
assay-endpoint: half-life (min)
Report the figure in min without appending any unit label.

Field request: half-life | item: CC(C)[C@@H]1NC(=O)[C@@H]2C[C@@H](O)CN2C(=O)[C@H]([C@@H](C)O)NC(=O)[C@H](CCCCN)NC(=O)[C@H](CCC(=O)O)NC(=O)[C@H](CC(N)=O)NC(=O)CNC(=O)[C@@H]2C[C@@H](O)CN2C(=O)[C@H](CC(N)=O)NC1=O [AFPep] (cyclo(EKT[Hyp]VN[Hyp]GN))
11

====

procedure-text: 8-day repeat-dose study, tolerability (blood chemistry, hematology, adverse events) in tumor-bearing dogs
Assay type: in vivo, dog
assay-conditions: Dog 2; Post: 30 min after last injection on day 8; 10 mg s.c. once daily for 8 days
Where a SMILES comes first, the peptide text is derived from it. [ ]: non-standard residue; d: D form. Hyp = O=C(O)[C@@H]1C[C@@H](O)CN1
assay-endpoint: GGT (U/L)
Report the figure in U/L without appending any unit label.

Field request: GGT | item: CC(C)[C@@H]1NC(=O)[C@@H]2C[C@@H](O)CN2C(=O)[C@H]([C@@H](C)O)NC(=O)[C@H](CCCCN)NC(=O)[C@H](CCC(=O)O)NC(=O)[C@H](CC(N)=O)NC(=O)CNC(=O)[C@@H]2C[C@@H](O)CN2C(=O)[C@H](CC(N)=O)NC1=O [AFPep] (cyclo(EKT[Hyp]VN[Hyp]GN))
6

====

procedure-text: 8-day repeat-dose study, tolerability (blood chemistry, hematology, adverse events) in tumor-bearing dogs
Type: in vivo, dog
assay-conditions: Dog 4; Post: 30 min after last injection on day 8; 10 mg s.c. once daily for 8 days
Where a SMILES comes first, the peptide text is derived from it. [ ]: non-standard residue; d: D form. Hyp = O=C(O)[C@@H]1C[C@@H](O)CN1
assay-endpoint: ALT (U/L)
Report the figure in U/L without appending any unit label.

Field request: ALT | item: CC(C)[C@@H]1NC(=O)[C@@H]2C[C@@H](O)CN2C(=O)[C@H]([C@@H](C)O)NC(=O)[C@H](CCCCN)NC(=O)[C@H](CCC(=O)O)NC(=O)[C@H](CC(N)=O)NC(=O)CNC(=O)[C@@H]2C[C@@H](O)CN2C(=O)[C@H](CC(N)=O)NC1=O [AFPep] (cyclo(EKT[Hyp]VN[Hyp]GN))
60

====

procedure-text: 8-day repeat-dose study, tolerability (blood chemistry, hematology, adverse events) in tumor-bearing dogs
Type: in vivo, dog
assay-conditions: Dog 4; Post: 30 min after last injection on day 8; 10 mg s.c. once daily for 8 days
Procedure: Previous studies utilizing repeat dosing in mice and rats established safe starting doses for studies using dogs. […] Blood levels of AFPep were measured before and 30 minutes following its administration on the first day and eighth day of treatment with AFPep. […] Tolerability was assessed using the Veterinary Cooperative Oncology Group Common Terminology Criteria for Adverse Events. […]
Where a SMILES comes first, the peptide text is derived from it. [ ]: non-standard residue; d: D form. Hyp = O=C(O)[C@@H]1C[C@@H](O)CN1
assay-endpoint: Sodium (mmol/L)
Report the figure in mmol/L without appending any unit label.

Field request: Sodium | item: CC(C)[C@@H]1NC(=O)[C@@H]2C[C@@H](O)CN2C(=O)[C@H]([C@@H](C)O)NC(=O)[C@H](CCCCN)NC(=O)[C@H](CCC(=O)O)NC(=O)[C@H](CC(N)=O)NC(=O)CNC(=O)[C@@H]2C[C@@H](O)CN2C(=O)[C@H](CC(N)=O)NC1=O [AFPep] (cyclo(EKT[Hyp]VN[Hyp]GN))
147

====

procedure-text: 8-day repeat-dose study, tolerability (blood chemistry, hematology, adverse events) in tumor-bearing dogs
Format: in vivo, dog
assay-conditions: Dog 2; Post: 30 min after last injection on day 8; 10 mg s.c. once daily for 8 days
Where a SMILES comes first, the peptide text is derived from it. [ ]: non-standard residue; d: D form. Hyp = O=C(O)[C@@H]1C[C@@H](O)CN1
assay-endpoint: Sodium (mmol/L)
Report the figure in mmol/L without appending any unit label.

Field request: Sodium | item: CC(C)[C@@H]1NC(=O)[C@@H]2C[C@@H](O)CN2C(=O)[C@H]([C@@H](C)O)NC(=O)[C@H](CCCCN)NC(=O)[C@H](CCC(=O)O)NC(=O)[C@H](CC(N)=O)NC(=O)CNC(=O)[C@@H]2C[C@@H](O)CN2C(=O)[C@H](CC(N)=O)NC1=O [AFPep] (cyclo(EKT[Hyp]VN[Hyp]GN))
146

====

procedure-text: 8-day repeat-dose study, tolerability (blood chemistry, hematology, adverse events) in tumor-bearing dogs
Assay type: in vivo, dog
assay-conditions: Dog 5; Post: 30 min after last injection on day 8; 10 mg s.c. once daily for 8 days
Where a SMILES comes first, the peptide text is derived from it. [ ]: non-standard residue; d: D form. Hyp = O=C(O)[C@@H]1C[C@@H](O)CN1
assay-endpoint: Calcium (mg/dL)
Report the figure in mg/dL without appending any unit label.

Field request: Calcium | item: CC(C)[C@@H]1NC(=O)[C@@H]2C[C@@H](O)CN2C(=O)[C@H]([C@@H](C)O)NC(=O)[C@H](CCCCN)NC(=O)[C@H](CCC(=O)O)NC(=O)[C@H](CC(N)=O)NC(=O)CNC(=O)[C@@H]2C[C@@H](O)CN2C(=O)[C@H](CC(N)=O)NC1=O [AFPep] (cyclo(EKT[Hyp]VN[Hyp]GN))
10

====

procedure-text: 8-day repeat-dose study, tolerability (blood chemistry, hematology, adverse events) in tumor-bearing dogs
Format: in vivo, dog
assay-conditions: Dog 5; Post: 30 min after last injection on day 8; 10 mg s.c. once daily for 8 days
Where a SMILES comes first, the peptide text is derived from it. [ ]: non-standard residue; d: D form. Hyp = O=C(O)[C@@H]1C[C@@H](O)CN1
assay-endpoint: Total Bilirubin (mg/dL)
Report the figure in mg/dL without appending any unit label.

Field request: Total Bilirubin | item: CC(C)[C@@H]1NC(=O)[C@@H]2C[C@@H](O)CN2C(=O)[C@H]([C@@H](C)O)NC(=O)[C@H](CCCCN)NC(=O)[C@H](CCC(=O)O)NC(=O)[C@H](CC(N)=O)NC(=O)CNC(=O)[C@@H]2C[C@@H](O)CN2C(=O)[C@H](CC(N)=O)NC1=O [AFPep] (cyclo(EKT[Hyp]VN[Hyp]GN))
0.1
